Experiment: Thermostability: relative bioluminescence activity after 30 min incubation
Assay type: physicochemical
Settings: 30° C. for 30 min; CLZ-f
Please go through the items and note down their Thermostability, luminescence activity relative to wt-aequorin.
Give bare numbers.

N121D: apoaequorin mutant, asparagine 121 replaced by aspartic acid (SEQ ID NO:9) (protein, mutant aequorin) SKLTSDFDNPRWIGRHKHMFNFLDVNHNGKISLDEMVYKASDIVINNLGATPEQAKRHKDAVEAFFGGAGMKYGVETDWPAYIEGWKKLATDELEKYAKNEPTLIRIWGDALFDIVDKDQDGAITLDEWKAYTKAAGIIQSSEDCEETFRVCDIDESGQLDVDEMTRQHLGFWYTMDPACEKLYGGAVP = 0.81

// Thermostability, luminescence activity relative to wt-aequorin value for QD + AD: apoaequorin double mutant Q159D + A123D (SEQ ID NO:15) (protein, mutant aequorin) SKLTSDFDNPRWIGRHKHMFNFLDVNHNGKISLDEMVYKASDIVINNLGATPEQAKRHKDAVEAFFGGAGMKYGVETDWPAYIEGWKKLATDELEKYAKNEPTLIRIWGDALFDIVDKDQNGDITLDEWKAYTKAAGIIQSSEDCEETFRVCDIDESGDLDVDEMTRQHLGFWYTMDPACEKLYGGAVP : 0.97
